System: EC46 cells
Test: Cell viability assay
Type: cell-based, human
Conditions: Homo sapiens, Pancreatic cancer cell, 48 h
pIC50: −log10 of the molar value. Counter-ions that a name gives are not always drawn.
Endpoint Label: pIC50

[[record]]
molecule = "C#Cc1cccc(Nc2ncnc3cc(OCCOC)c(OCCOC)cc23)c1 [erlotinib hydrochloride, reference compound]"
observed = 5.62

